systemUnderTest: c-Raf (Homo sapiens)
Sequence (P04049 whole entry): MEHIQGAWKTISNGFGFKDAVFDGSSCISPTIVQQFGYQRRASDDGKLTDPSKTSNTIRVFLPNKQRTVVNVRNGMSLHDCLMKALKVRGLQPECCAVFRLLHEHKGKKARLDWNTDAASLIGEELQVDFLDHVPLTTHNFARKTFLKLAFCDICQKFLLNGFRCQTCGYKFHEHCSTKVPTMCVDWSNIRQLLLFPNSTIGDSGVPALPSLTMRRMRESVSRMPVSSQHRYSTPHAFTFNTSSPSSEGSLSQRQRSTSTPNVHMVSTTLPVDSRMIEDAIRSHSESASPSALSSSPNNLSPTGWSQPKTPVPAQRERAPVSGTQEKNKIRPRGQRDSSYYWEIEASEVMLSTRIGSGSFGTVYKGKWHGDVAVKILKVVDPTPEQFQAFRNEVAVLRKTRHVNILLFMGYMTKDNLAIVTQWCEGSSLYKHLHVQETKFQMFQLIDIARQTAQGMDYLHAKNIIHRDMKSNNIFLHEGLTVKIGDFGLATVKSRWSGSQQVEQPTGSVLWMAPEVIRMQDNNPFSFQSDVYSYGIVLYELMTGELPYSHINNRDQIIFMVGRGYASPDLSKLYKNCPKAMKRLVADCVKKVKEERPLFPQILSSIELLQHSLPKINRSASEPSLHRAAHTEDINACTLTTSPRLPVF
experimentalProtocol: Luciferase-coupled chemiluminescence kinase assay (ATP consumption), c-Raf
Assay type: biochemical
statedConditions: read-out: cRaf-1 IC50
pIC50: −log10 of the molar value.
assayMetric: pIC50

// query pIC50 value for entry COC(=O)Nc1nc2cc(C3(O)c4ccccc4C(=O)N3c3cccc(Cc4ccccc4)c3)ccc2[nH]1 (stereo not shown) [Entry 232]
> 7.00

// query pIC50 value for entry Cc1cccc(N2C(=O)c3ccccc3C2(O)c2ccc3c(c2)NC(=O)CO3)c1 (stereo not shown) [Entry 44]
6.00 to 7.00

// query pIC50 value for entry O=C1COc2ccc(C3(O)c4ccccc4C(=O)N3c3ccccc3F)cc2N1 (stereo not shown) [Entry 83]
5.00 to 6.00

// query pIC50 value for entry CN(C)Cc1cccc(N2C(=O)c3ccccc3C2(O)c2ccc3c(c2)NC(=O)CO3)c1 (stereo not shown) [Entry 86]
5.00 to 6.00

// query pIC50 value for entry O=C(Nc1nc2cc(C3(O)c4ccccc4C(=O)N3Cc3ccccc3)ccc2[nH]1)OCC1CC1 (stereo not shown) [Entry 187]
> 7.00

// query pIC50 value for entry COC(=O)Nc1nc2cc(C3(O)c4ccccc4C(=O)N3c3cc(Cl)c(F)cc3F)ccc2[nH]1 (stereo not shown) [Entry 245]
> 7.00

// query pIC50 value for entry COC(=O)Nc1nc2cc(C3(O)c4ccccc4C(=O)N3C3CCc4ccccc43)ccc2[nH]1 (stereo not shown) [Entry 191]
> 7.00

// query pIC50 value for entry C[C@H](c1ccccc1)N1C(=O)c2ccccc2C1(O)c1ccc2[nH]c(NC(=O)OCc3ccccc3)nc2c1 (stereo partly shown) [Entry 150]
> 7.00

// query pIC50 value for entry CC[C@H](c1ccccc1)N1C(=O)c2ccccc2C1(O)c1ccc2[nH]c(NC(=O)OC)nc2c1 (stereo partly shown) [Entry 182]
6.00 to 7.00

// query pIC50 value for entry O=C1COc2ccc(C3(O)c4ccccc4C(=O)N3c3cccc(F)c3)cc2N1 (stereo not shown) [Entry 39]
6.00 to 7.00

// query pIC50 value for entry CCNC(=O)Nc1nc2ccc(C3(O)c4ccccc4C(=O)N3c3ccc(F)cc3)cc2[nH]1 (stereo not shown) [Entry 260]
> 7.00

// query pIC50 value for entry COC(=O)Nc1nc2cc(C3(O)c4ccccc4C(=O)N3c3cccc(Cl)c3F)ccc2[nH]1 (stereo not shown) [Entry 224]
> 7.00

// query pIC50 value for entry Cc1c(Cl)cccc1N1C(=O)c2ccccc2C1(O)c1ccc2c(c1)NC(=O)CO2 (stereo not shown) [Entry 75]
6.00 to 7.00

// query pIC50 value for entry COC(=O)Nc1nc2cc(C3(O)c4ccccc4C(=O)N3c3cccc(F)c3F)ccc2[nH]1 (stereo not shown) [Entry 184]
> 7.00

// query pIC50 value for entry COC(=O)Nc1nc2ccc(C3(O)c4ccccc4C(=O)N3Cc3cccc(Br)c3)cc2[nH]1 (stereo not shown) [Entry 120]
> 7.00

// query pIC50 value for entry COC(=O)Nc1nc2cc(C3(O)c4ccccc4C(=O)N3C(C)c3ccc(C)s3)ccc2[nH]1 (stereo not shown) [Entry 201]
> 7.00

This collection of values is drawn from patent US7846959B2.
